- TEST: log D (shake flask, 1-octanol/aqueous buffer)
- Type: physicochemical
- MEASUREMENT_CONDITIONS: pH 7.4, 1-octanol/aqueous buffer
Kindly state logD for each of the entries shown.
Give bare numbers.

Past entries and their recorded results:
The value of logD measured for the compound COc1cc(OC2CN(CCCF)C2)ccc1[C@@H]1c2ccc3[nH]ncc3c2C[C@@H](C)N1CC1(F)CC1 [Example 7] turned out to be 3.5

The value of logD measured for the compound COc1cc(NC2CN(CCCF)C2)ccc1[C@@H]1c2ccc3[nH]ncc3c2C[C@@H](C)N1CC(F)(F)F [Example 28] turned out to be 3.6

The value of logD measured for the compound COc1cc(NC2CN(CCCF)C2)ccc1[C@@H]1c2ccc3[nH]ncc3c2C[C@@H](C)N1CC(C)(F)F [Example 19] turned out to be 3.7

The value of logD measured for the compound CC1(C)Cc2c(ccc3[nH]ncc23)[C@@H](c2ccc(NC3CN(CCCF)C3)cn2)N1CC(F)(F)F [Example 72] turned out to be 3.3

The value of logD measured for the compound C[C@@H]1Cc2c(ccc3[nH]nc(F)c23)[C@@H](c2ncc(NC3CN(CCCF)C3)cc2F)N1CC(F)(F)F [Example 33] turned out to be 3.6

Further cases:
The value of logD measured for the compound C[C@@H]1Cc2c(ccc3[nH]ncc23)[C@@](C)(c2ccc(NC3CN(CCCF)C3)cn2)N1CC(F)F [Example 44] turned out to be 3.2

====

Kindly state pIC50 for each of the entries shown.
- TESTED_TARGET: recombinant human Estrogen Receptor alpha ligand binding domain (ER alpha-LBD (GST)) (Homo sapiens (Human))
- Sequence (P03372 307-554): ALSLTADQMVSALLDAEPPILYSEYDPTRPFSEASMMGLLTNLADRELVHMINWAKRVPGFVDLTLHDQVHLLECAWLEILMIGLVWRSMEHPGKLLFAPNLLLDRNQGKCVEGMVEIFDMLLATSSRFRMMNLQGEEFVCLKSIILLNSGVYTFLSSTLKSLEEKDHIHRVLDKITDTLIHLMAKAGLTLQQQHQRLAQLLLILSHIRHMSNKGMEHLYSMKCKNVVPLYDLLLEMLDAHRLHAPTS
- TEST: ERα binding assay (LanthaScreen TR-FRET competition)
- MEASUREMENT_CONDITIONS: TR-FRET, displacement of Fluormone ES2
Numbers only, as −log10 of the molar value.

# batch size: 2; output pIC50 per entry
1. COc1cc(NC2CN(CCCF)C2)ccc1[C@@H]1c2ccc3[nH]ncc3c2C[C@@H](C)N1CC(F)F
2. C[C@@H]1Cc2c(ccc3[nH]ncc23)[C@@H](c2c(F)cc(NC3CN(CCCF)C3)cc2F)N1CC(C)(F)CO (single isomer, unassigned) [Example 24]

8.68
8.00

# batch size: 2; output pIC50 per entry
1. C[C@@H]1Cc2c(ccc3[nH]ncc23)[C@@H](c2cnc(NC3CN(CCCF)C3)cn2)N1CC(F)(F)F
2. C[C@@H]1Cc2c(ccc3[nH]ncc23)[C@@H](c2ccc(OC3CN(CCCF)C3)cn2)N1CC(F)F

1: 8.42; 2: 8.17

# batch size: 6; output pIC50 per entry
1. C[C@@H]1Cc2c(ccc3[nH]ncc23)[C@@H](c2ccc(OC3CN(CCCF)C3)cn2)N1CC(F)(F)CO
2. CC(C)CN1[C@H](c2ccc(NC3CN(CCCF)C3)cn2)c2ccc3[nH]ncc3c2C[C@H]1C
3. C[C@@H]1Cc2c(ccc3[nH]ncc23)[C@@H](c2ncc(NC3CN(CCCF)C3)cc2F)N1CC(F)(F)F
4. C[C@@H]1Cc2c(ccc3[nH]ncc23)[C@@H](c2ncc(OC3CN(CCCF)C3)cc2F)N1CC(F)(F)CO
5. C[C@@H]1Cc2c(ccc3[nH]ncc23)[C@@H](c2cnc(NC3CN(CCCF)C3)cn2)N1CC1(F)CC1
6. C[C@@H]1Cc2c(ccc3[nH]ncc23)[C@@H](c2ccc(NC3CN(CCCF)C3)cn2)N1CC1(F)CC1

1. 8.68
2. 8.05
3. 8.74
4. 8.14
5. 8.09
6. 8.19
